- System: NCI-H1694;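 note: cell viability assay measuring inhibition of growth in human NCI-H1694 cells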
- Run Description: cells
- Type: functional, cell-based, Homo sapiens
- Assay Context: Homo sapiens, NCI-H1694
- Description: SANGER: Inhibition of human NCI-H1694 cell growth in a cell viability assay.
pIC50: −log10 of the molar value.
In this section, each of the compounds is paired with its reported pIC50.

What value of pIC50 has been reported for the following compound? Cc1cc(N2CCOCC2)cc2[nH]c(-c3c(NC[C@@H](O)c4cccc(Cl)c4)cc[nH]c3=O)nc12
< 5.29

---

- Test system: NB7;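 note: growth inhibition of NB7 cells, read out with a cell viability assay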
- Run Description: cells
- Format: functional, cell-based, Homo sapiens
- Assay Context: nb7
- Description: SANGER: Inhibition of human NB7 cell growth in a cell viability assay.
Where a SMILES comes first, the peptide text is derived from it. The star is where a group is joined. Cbz = O=C(OCc1ccccc1)*
Parameter Measured: IC50

What value of IC50 has been reported for the following molecule? CC(C)C[C@@H](C=O)NC(=O)[C@H](CC(C)C)NC(=O)[C@H](CC(C)C)NC(=O)OCc1ccccc1 [MG-132] (Cbz-Leu-Leu-Leu-aldehyde)
> 1000 nM
